Entries annotated with measured IC50
SYSTEM: INDY (Homo sapiens, UniProt Q86YT5)
Sequence (Q86YT5 whole entry): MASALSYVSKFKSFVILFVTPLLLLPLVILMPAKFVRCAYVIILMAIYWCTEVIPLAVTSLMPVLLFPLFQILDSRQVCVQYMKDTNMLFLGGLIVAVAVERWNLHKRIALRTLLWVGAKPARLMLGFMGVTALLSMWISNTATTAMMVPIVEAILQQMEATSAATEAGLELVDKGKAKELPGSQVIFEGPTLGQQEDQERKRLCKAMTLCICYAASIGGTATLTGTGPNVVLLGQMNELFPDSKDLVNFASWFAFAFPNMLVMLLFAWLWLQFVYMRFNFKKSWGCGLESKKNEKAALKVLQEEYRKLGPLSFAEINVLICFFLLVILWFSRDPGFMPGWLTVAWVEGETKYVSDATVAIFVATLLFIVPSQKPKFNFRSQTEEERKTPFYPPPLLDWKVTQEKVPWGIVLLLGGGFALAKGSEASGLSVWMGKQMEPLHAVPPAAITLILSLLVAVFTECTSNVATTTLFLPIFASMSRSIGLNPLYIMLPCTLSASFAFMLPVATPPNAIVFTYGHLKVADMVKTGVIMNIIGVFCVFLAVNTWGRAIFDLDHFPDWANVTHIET
METHOD: Fatty acid synthesis (FAS) assay from 14C-citrate in HepG2 cells
Format: cell-based
CONDITION SET: 14C-citrate into fatty acids

COMPOUND: O=C(NCc1ccccc1F)C1CCN(S(=O)(=O)c2ccc(C(F)(F)F)cc2)CC1 [Example 25]
IC50: 400 nM
//
COMPOUND: O=C(NCc1ccccn1)C1CCN(S(=O)(=O)c2cc(Cl)cc(C3CC3)c2)CC1 [Example 101]
IC50: 200 nM
//
COMPOUND: O=C(NCc1ccccc1F)C1CCN(S(=O)(=O)/C=C/c2ccccc2)CC1 [Example 5]
IC50: 1300 nM
//
COMPOUND: O=C(NCc1ccccn1)C1CCN(S(=O)(=O)c2ccc(S(F)(F)(F)(F)F)cc2)CC1 [Example 86]
IC50: 400 nM
